experiment: chemical genetic growth profiling, strain panel (AID 1159580);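 also: tested at 20 µM; growth read once vehicle control cultures reached saturation at 30 °C; 1 = growth at the plate median or of vehicle wells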; conditions: S. cerevisiae deletion strains, growth OD, locus YJR043C, strain POL32, stronger effect = lower value
Hit rate of the full screen: of about 5,500 compounds, about 2,000 (36%) were called active. Roughly 18% stayed inconclusive and do not appear here. The list shows a part of the results.
# note: exactly 1 is not below, so it is condition not met; use condition met for normalized growth strictly under it

Consider the worked cases shown below.
COc1cc(OC)cc(N2C(=O)C=CC2=O)c1 ... condition met
COC(=O)C[C@H]1C(C)(C)[C@@H](O)[C@@H]2CC3=C4C=C(OC)O[C@@H](c5ccoc5)[C@]4(C)CCC3[C@@]1(C)C2=O (some centres undefined) ... condition not met
Cc1cc(C)cc(N2C(=O)CC(Sc3ccccc3C(=O)O)C2=O)c1 (centres undefined) ... condition met
COc1cc(/C=C2/SC(=S)NC2=O)cc(OC)c1OC ... condition met
Cn1c(=O)c(-c2ccccc2)c(O)c2ccccc21 ... condition met

Take the compound O=C1CCCN1c1ccc(Cl)c(Cl)c1 and say whether its normalized growth is less than 1.
condition met

# TODO verify normalized growth < 1 strictly for this compound: COc1cc(O)cc(OC)c1OC
condition not met

###

assay: chemical genetic growth profiling, strain panel (AID 1159580);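 also: tested at 20 µM; growth read once vehicle control cultures reached saturation at 30 °C; 1 = growth at the plate median or of vehicle wells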; details: S. cerevisiae deletion strains, growth OD, locus YBL061C, strain skt5, stronger effect = lower value
Among all 5,500 compounds or so, about 2,000 (36%) were called active. Not shown: some 18% with an inconclusive outcome. The list shows a part of the results.
property-measured: normalized growth
No unit in the answer, only the number.

Check out these entries, answers already filled in.
O=c1c(O)c(-c2ccc(O)c(O)c2)oc2cc(O)ccc12 ... 0.964
CCCCCCCCCCCCCCCCCCOCC(O)CO (stereo not given) ... 0.987
CCOc1ccc(C(=O)c2ccc(O)c(O)c2O)cc1 ... 0.898
COc1cc(/C=C/C(=O)N2CCC=CC2=O)cc(OC)c1OC ... 0.993
NC1C[C@H]1c1ccccc1 (stereo not given in full) ... 0.991

Any idea what its normalized growth is? The molecule is CC1(C)C=Cc2cc3ccc(=O)oc3cc2O1
0.972

Request the reported normalized growth associated with CC(NCCC(c1ccccc1)c1ccccc1)c1ccccc1 (stereo not given)
0.934

Form field: reported normalized growth of O=C(O)[C@H](O)[C@@](O)(Cc1ccc(O)cc1)C(=O)O
1.01

Look up normalized growth for this molecule: CCN(CC)CCNC(=O)c1cc(Cl)c(N)cc1OC
0.976

So what does the record say about normalized growth for CN1C(=O)CCS(=O)(=O)C1c1ccc(Cl)cc1 (stereo not given) ?
1

Field request: normalized growth | item: CC(=O)[O][Hg][c]1ccccc1
0.0592

###

test: chemical genetic growth profiling, strain panel (AID 1159580);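 also: tested at 20 µM; growth read once vehicle control cultures reached saturation at 30 °C; 1 = growth at the plate median or of vehicle wells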; details: S. cerevisiae deletion strains, growth OD, locus YBR229C, strain ROT2
Out of some 5,500 compounds screened, about 2,000 (36%) were called active. Another 18% or so got no clear call; they are omitted. Rule as the data show it: active = normalized growth mostly below about 0.91 (no sharp cut-off); inconclusive = no clear call, values can overlap the other calls; inactive = mostly above about 0.92. This is one part of the list.
Pick from true = active, false = inactive when you respond.

Cn1c(=O)c(-c2ccccc2)c(O)c2ccccc21 ... true

Identify the outcome logged in this assay for the compound shown: COc1cc(OC)cc(N2C(=O)C=CC2=O)c1
true

Each compound tested received a call. Report the one for CC(=O)C1C(=O)CC(c2ccc(Cl)cc2)CC1=O (centres undefined) .
true

# outcome recorded in this test, key = CC(=O)N[C@@H](Cc1c[nH]c2ccccc12)C(=O)O
false

// return assay outcome for CN1C(=O)CCS(=O)(=O)C1c1ccc(Cl)cc1 (centres undefined)
false

Where do these numbers come from? They come from PubChem BioAssay AID1159580.
